Tested on: SW1271 complex spheroids with HUVEC/MSC, growth, % test/control
Test: Anticancer human tumor SW1271 cell line growth inhibition [AhR];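 note: spheroids exposed to agents for 7 days before readout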
Details: second compound 0.316 µM; first compound 1 µM; active compounds read low
From the text: Multicellular complex tumor spheroid response to aryl hydrocarbon receptor antagonists in combination with a variety of drugs and investigational agents in selected tumor cell lines […] Compounds. […] If the clinical Cmax for an agent had not been determined, the highest concentration tested was 10 microM (Table 1). […]
Measurement Type: viability, T/C (%)
Numeric only. Scale: %

Q: Provide viability, T/C, recorded with SW1271 complex spheroids with HUVEC/MSC, growth, % test/control, of COc1cccc2c1C(=O)c1c(O)c3c(c(O)c1C2=O)CC(O)(C(=O)CO)CC3OC1CC(N)C(O)C(C)O1 (stereo unspecified) + Cc1ccccc1N=Nc1ccc(NC(=O)c2ccnn2C)c(C)c1
Ans: 2.92

Q: Provide viability, T/C, recorded with SW1271 complex spheroids with HUVEC/MSC, growth, % test/control, of Nc1ccn(C2OC(CO)C(O)C2(F)F)c(=O)n1 (stereo unspecified) + Cc1cncc(-c2nc(NCCc3c[nH]c4ccccc34)c3ncn(C(C)C)c3n2)c1
Ans: 64.3

Q: Provide viability, T/C, recorded with SW1271 complex spheroids with HUVEC/MSC, growth, % test/control, of COc1ccc([C@@H](O)c2cc(-c3ncnc4cc(N5CCOCC5)ccc34)c(F)cc2Cl)nn1 + CC(CO)NC(=O)c1cc(-c2ccc(Cl)cc2)nn(-c2cnn(C)c2)c1=O
Ans: 58.6

Q: Provide viability, T/C, recorded with SW1271 complex spheroids with HUVEC/MSC, growth, % test/control, of O=C(c1cc(Cc2n[nH]c(=O)c3ccccc23)ccc1F)N1CCN(C(=O)C2CC2)CC1 + Cc1ccccc1N=Nc1ccc(NC(=O)c2ccnn2C)c(C)c1
Ans: 98.7

Q: Provide viability, T/C, recorded with SW1271 complex spheroids with HUVEC/MSC, growth, % test/control, of COc1cc(Nc2ncc3c(n2)-c2ccc(Cl)cc2C(c2c(F)cccc2OC)=NC3)ccc1C(=O)O + Cc1ccccc1N=Nc1ccc(NC(=O)c2ccnn2C)c(C)c1
Ans: 65.9

Q: Provide viability, T/C, recorded with SW1271 complex spheroids with HUVEC/MSC, growth, % test/control, of CC1COCCN1c1cc(C2(S(C)(=N)=O)CC2)nc(-c2ccnc3[nH]ccc23)n1 (stereo unspecified) + CC(CO)NC(=O)c1cc(-c2ccc(Cl)cc2)nn(-c2cnn(C)c2)c1=O
Ans: 73.2

---

tested on: SW1271 complex spheroids with HUVEC/MSC, growth, % test/control; assay: Anticancer human tumor SW1271 cell line growth inhibition [AhR]; details: second compound 0.316 µM; first compound 0.003 µM; active compounds read low;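 note: spheroids exposed to agents for 7 days before readout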
Under this convention, TRUE denotes viability, T/C strictly below 90% and FALSE denotes viability, T/C at or above 90%.

Q: I'd appreciate it if you could check whether CCc1c2c(nc3ccc(O)cc13)-c1cc3c(c(=O)n1C2)COC(=O)[C@]3(O)CC + Cc1cncc(-c2nc(NCCc3c[nH]c4ccccc34)c3ncn(C(C)C)c3n2)c1 has viability, T/C smaller than 90%.
Ans: TRUE

Q: I'd appreciate it if you could check whether CCc1c2c(nc3ccc(O)cc13)-c1cc3c(c(=O)n1C2)COC(=O)[C@]3(O)CC + Cc1ccccc1N=Nc1ccc(NC(=O)c2ccnn2C)c(C)c1 has viability, T/C smaller than 90%.
Ans: TRUE

Q: I'd appreciate it if you could check whether Nc1ncn(C2CC(O)C(CO)S2)c(=O)n1 (stereo unspecified) + CC(CO)NC(=O)c1cc(-c2ccc(Cl)cc2)nn(-c2cnn(C)c2)c1=O has viability, T/C smaller than 90%.
Ans: TRUE

Q: I'd appreciate it if you could check whether Nc1ncn(C2CC(O)C(CO)S2)c(=O)n1 (stereo unspecified) + Cc1ccccc1N=Nc1ccc(NC(=O)c2ccnn2C)c(C)c1 has viability, T/C smaller than 90%.
Ans: FALSE
